Tested on: Pseudomonas aeruginosa ATCC 9027
Experiment: ≥ marks a high value that may be exact or a test limit, other limits are often not marked, values filed in µg/mL are converted to µM
Measure: MIC

molecule="CSCC[C@H](NC(=O)[C@H](CC(C)C)NC(=O)[C@H](CCCCN)NC(=O)CNC(=O)[C@H](C)NC(=O)[C@H](C)NC(=O)[C@H](CCCN=C(N)N)NC(=O)[C@H](Cc1ccccc1)NC(=O)[C@H](CC(C)C)NC(=O)[C@@H](NC(=O)[C@H](Cc1c[nH]c2ccccc12)NC(=O)[C@@H](NC(=O)[C@@H](N)CCCCN)C(C)C)[C@@H](C)O)C(=O)N[C@@H](C)C(=O)N[C@@H](CCCCN)C(N)=O [KVWTLFRAAGKLMAK]" assayed_target="Pseudomonas aeruginosa ATCC 9027" reported="> 25 µM"
molecule="CC[C@H](C)[C@H](NC(=O)[C@H](CCCCN)NC(=O)[C@@H](NC(=O)[C@H](C)NC(=O)[C@H](CC(C)C)NC(=O)[C@H](CCCCN)NC(=O)[C@H](Cc1ccccc1)NC(=O)[C@H](CC(C)C)NC(=O)[C@H](Cc1cnc[nH]1)NC(=O)CNC(=O)[C@H](Cc1ccccc1)NC(=O)[C@@H](N)Cc1ccccc1)[C@@H](C)O)C(=O)N[C@H](C(=O)N1CCC[C@H]1C(=O)N[C@@H](CO)C(=O)N[C@@H](CC(C)C)C(=O)N[C@@H](Cc1ccccc1)C(=O)N[C@@H](CCC(N)=O)C(=O)O)[C@@H](C)CC [FFGHLFKLATKIIPSLFQ]" assayed_target="Pseudomonas aeruginosa ATCC 9027" reported="11.9 µM"
molecule="CC[C@H](C)[C@H](NC(=O)[C@@H](NC(=O)[C@H](Cc1c[nH]c2ccccc12)NC(=O)[C@@H](NC(=O)[C@@H](N)CCCN=C(N)N)[C@@H](C)CC)C(C)C)C(=O)N[C@@H](CCCN=C(N)N)C(=O)N[C@@H](Cc1c[nH]c2ccccc12)C(=O)N[C@@H](CCCN=C(N)N)C(N)=O [RIWVIRWR]" assayed_target="Pseudomonas aeruginosa ATCC 9027" reported="25 µM"
molecule="CC[C@H](C)[C@H](NC(=O)CN)C(=O)N[C@@H](CC(C)C)C(=O)N[C@@H](CCCCN)C(=O)N[C@@H](CCCCN)C(=O)N[C@H](C(=O)N[C@@H](CC(C)C)C(=O)N[C@@H](CCCCN)C(=O)N[C@@H](CCCCN)C(=O)N[C@H](C(=O)N[C@@H](CC(C)C)C(=O)N[C@@H](CCCCN)C(=O)N[C@@H](CCCCN)C(=O)N[C@@H](CC(C)C)C(N)=O)[C@@H](C)CC)[C@@H](C)CC [GILKKILKKILKKL]" assayed_target="Pseudomonas aeruginosa ATCC 9027" reported="5.8 µM"
molecule="CC[C@H](C)[C@H](NC(=O)[C@H](CCCCN)NC(=O)[C@@H](NC(=O)[C@@H](NC(=O)[C@H](CCCCN)NC(=O)[C@H](CCCCN)NC(=O)[C@@H](NC(=O)[C@@H](NC(=O)[C@H](CCCCN)NC(=O)[C@H](CCCCN)NC(=O)[C@@H](NC(=O)[C@@H](N)CCCCN)[C@@H](C)CC)[C@@H](C)CC)[C@@H](C)CC)[C@@H](C)CC)[C@@H](C)CC)C(N)=O [KIKKIIKKIIKI]" assayed_target="Pseudomonas aeruginosa ATCC 9027" reported="9 µM"
molecule="CC[C@H](C)[C@H](NC(=O)[C@H](C)NC(=O)[C@H](CC(N)=O)NC(=O)[C@H](CCCCN)NC(=O)[C@@H](NC(=O)CNC(=O)[C@H](CCC(=O)O)NC(=O)[C@H](Cc1c[nH]c2ccccc12)NC(=O)[C@H](CC(C)C)NC(=O)[C@H](CCCCN)NC(=O)CNC(=O)[C@H](Cc1c[nH]c2ccccc12)NC(=O)[C@@H](N)Cc1ccccc1)C(C)C)C(N)=O [FWGKLWEGVKNAI]" assayed_target="Pseudomonas aeruginosa ATCC 9027" reported="40 µM"
molecule="CC[C@H](C)[C@H](NC(=O)[C@@H](NC(=O)[C@H](C)NC(=O)[C@H](Cc1ccccc1)NC(=O)[C@H](CC(C)C)NC(=O)CN)C(C)C)C(=O)N[C@@H](CCCCN)C(=O)N[C@@H](CCCCN)C(=O)N[C@H](C(=O)N[C@@H](C)C(=O)N[C@@H](CO)C(=O)N[C@H](C(=O)O)C(C)C)C(C)C [GLFAVIKKVASV]" assayed_target="Pseudomonas aeruginosa ATCC 9027" reported="208 µM"
molecule="CC(C)C[C@H](NC(=O)[C@H](C)NC(=O)[C@H](CCCCN)NC(=O)[C@H](C)NC(=O)[C@H](CC(C)C)NC(=O)[C@H](CCCCN)NC(=O)[C@H](CCCCN)NC(=O)[C@H](C)NC(=O)[C@H](CC(C)C)NC(=O)[C@H](CCCCN)NC(=O)[C@H](CCCCN)NC(=O)[C@H](C)NC(=O)[C@@H](N)Cc1ccccc1)C(N)=O [FAKKLAKKLAKAL]" assayed_target="Pseudomonas aeruginosa ATCC 9027" reported="3.5 µM"
molecule="CC[C@H](C)[C@H](NC(=O)[C@H](CCCN=C(N)N)NC(=O)[C@H](CCCN=C(N)N)NC(=O)[C@H](CC(C)C)NC(=O)[C@H](Cc1c[nH]c2ccccc12)NC(=O)[C@H](C)NC(=O)[C@H](CCCCN)NC(=O)[C@@H](NC(=O)[C@H](CCCN=C(N)N)NC(=O)[C@H](CCCN=C(N)N)NC(=O)[C@H](CC(C)C)NC(=O)[C@@H](N)Cc1c[nH]c2ccccc12)[C@@H](C)CC)C(=O)N[C@@H](CCCCN)C(=O)N[C@@H](C)C(=O)O [WLRRIKAWLRRIKA]" assayed_target="Pseudomonas aeruginosa ATCC 9027" reported="4 µM"
molecule="CC(C)C[C@H](NC(=O)[C@H](CCCCN)NC(=O)[C@H](CCCCN)NC(=O)[C@H](C)NC(=O)[C@H](CC(C)C)NC(=O)[C@H](CCCCN)NC(=O)[C@H](C)NC(=O)[C@H](CC(C)C)NC(=O)[C@H](CCCCN)NC(=O)[C@H](CCCCN)NC(=O)[C@H](C)NC(=O)[C@@H](N)Cc1ccccc1)C(N)=O [FAKKLAKLAKKL]" assayed_target="Pseudomonas aeruginosa ATCC 9027" reported="18.4 µM"
molecule="CC(C)C[C@H](NC(=O)[C@H](C)NC(=O)[C@H](CCCCN)NC(=O)[C@H](CCCCN)NC(=O)[C@H](Cc1ccccc1)NC(=O)[C@H](C)NC(=O)[C@H](CCCCN)NC(=O)[C@H](C)NC(=O)[C@H](CC(C)C)NC(=O)[C@H](CC(C)C)NC(=O)[C@H](CCCCN)NC(=O)[C@H](C)NC(=O)[C@@H](N)Cc1ccccc1)C(N)=O [FAKLLAKAFKKAL]" assayed_target="Pseudomonas aeruginosa ATCC 9027" reported="10.4 µM"
molecule="CC[C@H](C)[C@H](NC(=O)CNC(=O)CNC(=O)[C@H](C)NC(=O)[C@@H](NC(=O)[C@H](CCCCN)NC(=O)[C@@H]1CCCN1C(=O)[C@@H](NC(=O)[C@H](CC(C)C)NC(=O)[C@H](CO)NC(=O)[C@H](CC(C)C)NC(=O)[C@@H](N)Cc1ccccc1)[C@@H](C)CC)[C@@H](C)CC)C(=O)N[C@@H](C)C(=O)N[C@@H](C)C(=O)N[C@@H](CC(C)C)C(=O)N[C@H](C(=O)N[C@@H](CCCCN)C(=O)N[C@@H](CC(N)=O)C(=O)N[C@@H](CC(C)C)C(N)=O)C(C)C [FLSLIPKIAGGIAALVKNL]" assayed_target="Pseudomonas aeruginosa ATCC 9027" reported="256 µM"
